# testProtocol: Antiproliferative activity against human HL60 cells after 72 hrs by MTT assay
# Assay type: functional, cell-based, HL-60
# conditionDescription: Homo sapiens, HL-60, 72 h
quantityMeasured: IC50 (µM)
Number only, in µM; omit the unit.

Observe how each entry below is paired with its result.
> print(dat)
                                   molecule  unitabbreviation  observedresult
1  NC(=O)c1csc([C@@H]2O[C@H](CO)[C@@H](O)[C@H]2NC(=O)c2ccccc2)n1                µM            20.4
2  NC(=O)c1csc([C@@H]2O[C@H](CO)[C@@H](O)[C@H]2O)n1 [TIAZOFURIN]                µM            0.19

Query: // returns reported IC50 for input COc1cccc(C(=O)N[C@@H]2[C@H](O)[C@@H](CO)O[C@H]2c2nc(C(N)=O)cs2)c1
Response: 2.69

----------
Readings of Activity for the listed compounds
# System: K562
# testProtocol: Induction of apoptosis in human K562 cells assessed as necrotic cells after 24 hrs by annexin V-FITC/propidium iodide staining based flow cytometry (reference value: 1.50%)
# Format: functional
Number only, in %; omit the unit.

Query: // returns reported Activity for input NC(=O)c1csc([C@@H]2O[C@H](CO)[C@@H](O)[C@H]2N)n1
Response: 6.48

Query: // returns reported Activity for input CC(=O)N[C@@H]1[C@H](O)[C@@H](CO)O[C@H]1c1nc(C(N)=O)cs1
Response: 7.39

Query: // returns reported Activity for input NC(=O)c1csc([C@@H]2O[C@H](CO)[C@@H](O)[C@H]2O)n1
Response: 5.27

Query: // returns reported Activity for input NC(=O)c1csc([C@@H]2O[C@H](CO)[C@@H](O)[C@H]2NC(=O)c2ccccc2)n1
Response: 13.22

Query: // returns reported Activity for input [N-]=[N+]=N[C@@H]1[C@H](O)[C@@H](CO)O[C@H]1c1nc(C(N)=O)cs1
Response: 0.69

Query: // returns reported Activity for input COc1cccc(C(=O)N[C@@H]2[C@H](O)[C@@H](CO)O[C@H]2c2nc(C(N)=O)cs2)c1
Response: 5.19

Query: // returns reported Activity for input Cl.NC(=O)c1csc([C@@H]2O[C@H](CO)[C@@H](O)[C@H]2N)n1
Response: 5.11

----------
# System: K562
# testProtocol: Induction of specific necrosis in human K562 cells after 72 hrs by annexin V-FITC/propidium iodide staining based flow cytometry
# Type: functional
# Parameters: concentration or dose not given beside the values
Label criterion met for high-side Activity (at or above 7%) and criterion not met for low-side Activity (below it).

Worked set:
> print(dat)
                                smilesinput      assignedlabel
1  COc1cccc(C(=O)N[C@@H]2[C@H](O)[C@@H](CO)O[C@H]2c2nc(C(N)=O)cs2)c1      criterion met
2  NC(=O)c1csc([C@@H]2O[C@H](CO)[C@@H](O)[C@H]2O)n1      criterion met
3  Cl.NC(=O)c1csc([C@@H]2O[C@H](CO)[C@@H](O)[C@H]2N)n1  criterion not met

Query: Quick check: does [N-]=[N+]=N[C@@H]1[C@H](O)[C@@H](CO)O[C@H]1c1nc(C(N)=O)cs1 have Activity greater than or equal to 7%?
Response: criterion not met

Query: Quick check: does CC(=O)N[C@@H]1[C@H](O)[C@@H](CO)O[C@H]1c1nc(C(N)=O)cs1 have Activity greater than or equal to 7%?
Response: criterion met
